- System: COLO 205 colon
- assay-method-text: NCI tumour cell line growth inhibition, 48 h
Each entry below lists one item and its recorded TGI value.
The response must be a number in µM with no trailing unit.

compound	TGI [µM]
O=C1NC(N/N=C/c2ccccc2)=N/C1=C\c1cccs1	19.9
CCN(CC)CCCNc1nc2ccccc2c2c(=O)c3cc(Cl)ccc3sc12	5.58
c1ccc(/N=N\Nc2ccc(-c3nc4ccccc4o3)cc2)nc1	49.2
COc1cc(C2CC(c3ccc(Nc4ccnc5cc(Cl)ccc45)cc3)=NN2C=O)cc(OC)c1OC (centres undefined)	70.4
c1ccc2c(-c3nc4ccccc4[nH]3)cccc2c1	11.8
COC(=O)c1c(C)cc2c(c1O)C1(O)C(=O)c3cc4c(c(O)c3C(=O)C1(OC)C(O)C2)C(=O)C=C(NC1OC(C)C(OC)C(O)C1OC)C4=O (centres undefined)	0.186
Oc1ccc2ccccc2c1C(c1ccc(Cl)cc1)c1c(O)ccc2ccccc12	4.49

Could you now look at the following compound, please?
q: # input compound: Oc1ccc2c3c1OC1C(=NN=C4CCC5(O)C6Cc7ccc(O)c8c7C5(CCN6CC5CC5)C4O8)CCC4(O)C(C2)N(CC2CC2)CCC314 (centres undefined) ; wanted: its TGI
a: 38.4

###

- Test system: HL-60(TB) leukemia
- assay-method-text: NCI tumour cell line growth inhibition, 48 h
Tick 1 if TGI is 20 µM or greater. Tick 0 if TGI is less than 20 µM.

Worked examples, 2 compounds total:
compound	study-target	category-label
N#CCC12CC=CCC1=C(O)C(=O)c1ccc(O)cc12 (centres undefined)	HL-60(TB) leukemia	1
COc1ccc(N=Nc2c(C)c(C#N)c(=S)n(C3OC(COC(C)=O)C(OC(C)=O)C(OC(C)=O)C3OC(C)=O)c2-c2ccccc2)cc1 (centres undefined)	HL-60(TB) leukemia	1

q: Say whether c1ccc(SC(Sc2ccccc2)c2ccc3c(c2)OCO3)cc1 shows TGI of 20 µM or more.
a: 1

q: Another compound to look at: Cc1nc(N)c(N2CCN(Cc3ccccc3)CC2)c(=O)[nH]1
a: 1

q: Another compound to look at: O=Cc1[nH]c(=O)[nH]c(=O)c1CCl
a: 1

q: Another compound to look at: O=C1CCCC(=O)C1=C(O)CCCCCCCCCCc1ccccc1
a: 1

q: Another compound to look at: O=c1c[n+](-c2ccccc2)[nH]o1
a: 1

q: Another compound to look at: O=C(O)CSc1nnc(CCCCCCCCc2nnc(SCC(=O)O)o2)o1
a: 1

q: Another compound to look at: CCCN1CN(c2ccccc2)C2(CCN(CCCC(=O)c3ccc(F)cc3)CC2)C1=O
a: 1

q: Another compound to look at: COC1=CC(=O)c2c(O)ccc(O)c2C1=O
a: 1

q: Another compound to look at: CCSc1nc(N2CCCCC2)c2cn[nH]c2n1
a: 1

q: Another compound to look at: O=C1/C(=C/c2ccc(Cl)cc2)CN(Cc2cn(CCNc3ccnc4cc(Cl)ccc34)nn2)C/C1=C\c1ccc(Cl)cc1
a: 0

###

- Test system: 786-0 renal
- assay-method-text: NCI tumour cell line growth inhibition, 48 h
test-readout: TGI (µM)
The response must be a number in µM with no trailing unit.

Answered cases to consult:
molecule	study-target	measured
Oc1ccc2c3c1OC1C(=NN=C4CCC5(O)C6Cc7ccc(O)c8c7C5(CCN6CC5CC5)C4O8)CCC4(O)C(C2)N(CC2CC2)CCC314 (stereo not given)	786-0 renal	66.2
Cc1cc(O)ccc1O	786-0 renal	75.8

Could you now look at the following molecule, please?
q: # input molecule: COC(=O)c1c(C)cc2c(c1O)C1(O)C(=O)c3cc4c(c(O)c3C(=O)C1(OC)C(O)C2)C(=O)C=C(NC1OC(C)C(OC)C(O)C1OC)C4=O (stereo not given) ; wanted: its TGI
a: 0.202

###

- System: OVCAR-8 ovarian
- assay-method-text: NCI tumour cell line growth inhibition, 48 h
Each entry below lists one item and its recorded TGI value.
The response must be a number in µM with no trailing unit.

smi	study-target	TGI / µM
CCC[CH2][Sn]1([CH2]CCC)[O]C(=O)c2cccc(OC)c2[O]1	OVCAR-8 ovarian	1.71

Could you now look at the following compound, please?
q: # input compound: CC(C)/C(Cl)=N\OC(=O)Nc1ccc(F)c([N+](=O)[O-])c1 ; wanted: its TGI
a: 10.9

###

- System: HOP-92 NSCLC
- assay-method-text: NCI tumour cell line growth inhibition, 48 h
Each entry below lists one item and its recorded TGI value.

compound	TGI
O=Cc1[nH]c(=O)[nH]c(=O)c1CCl	> 100 µM
O/N=C1/CCCCCC1NO (configuration not stated)	> 100 µM
NC1=NN(c2ccccc2)C2(c3ccncc3C(=O)O)C1C(N)=NN2c1ccccc1 (configuration not stated)	> 100 µM
COc1ccc(/C=C(\C(=O)OCC(C)C)c2ccc(OC)c(OC)c2)cc1OC	> 100 µM
COc1cc(-n2cc(-c3ccc(F)cc3)[nH]c2=S)cc(OC)c1OC	> 100 µM
CCOP(=O)(OCC)/C(C#N)=C/c1ccc[nH]1	> 100 µM

Could you now look at the following compound, please?
q: # input compound: CC(C)=CCc1ccc(O)c(=O)cc1C(C)C ; wanted: its TGI
a: 65.3 µM

###

- System: OVCAR-4 ovarian
- assay-method-text: NCI tumour cell line growth inhibition, 48 h; in the data active means GI50 below about 0.43 µM; inactive means the rest
Outcome field: choose from Yes = active, No = inactive

Worked examples, 8 compounds total:
compound	category-label
COc1cc(C(=O)/C=C/c2c(-c3ccc(F)cc3)nc3ncccn23)cc(OC)c1OC	No
c1ccc2c(Nc3ccc(Oc4ccc(Nc5c6ccccc6nc6ccccc56)cc4)cc3)c3ccccc3nc2c1	Yes
O=C1c2cccc3cccc(c23)C(=O)N1CCCCN1CCN(CCCCOc2ccc(-c3nc4ccc(N5CCOCC5)cc4[nH]3)cc2)CC1	No
COc1cc2c3c(n(CCCNC(=O)OCC4c5ccccc5-c5ccccc54)c(=O)c2cc1OC)-c1cc2c(cc1C3=O)OCO2	No
O=C(N/N=c1/ccoc2cccnc12)N1CCN(c2ncccn2)CC1	Yes
O=C(Nc1cccc([N+](=O)[O-])c1)c1ccc2ccccc2c1O	No
COc1ccc(N(C)c2nc(Cl)nc3ccn(C)c23)cc1	Yes
CCCCCCCCCCCCCC(=O)OC(/C=C/C(C)C)C(O)C(O)C(OC)C(=O)NC1CCCCNC1=O (centres undefined)	No

Now for a further compound.
q: Hey, what did the test say about COc1cc2c(cc1OCCCCCn1c(-c3ccco3)nc3ccccc31)N=C[C@@H]1CCCN1C2=O ?
a: Yes

###

- Tested on: LOX IMVI melanoma
- assay-method-text: NCI tumour cell line growth inhibition, 48 h; in the data active means GI50 below about 0.43 µM; inactive means the rest
Outcome field: choose from active, inactive

Worked examples, 6 compounds total:
compound	category-label
CC1CC(C)/C(=N/NC(N)=O)C(C(O)CC2CCC(=O)NC2=O)C1 (stereo not given)	inactive
COc1ccc(N(C)c2nc(Cl)nc3ccn(C)c23)cc1	active
CC1(C)N=C(N)N=C(N)N1c1ccc(OCC(=O)N2CCOCC2)c(Cl)c1	inactive
O=C(Nc1ccc(Cl)cc1)c1ccc([N+](=O)[O-])o1	inactive
c1ccc2c(Nc3ccc(Oc4ccc(Nc5c6ccccc6nc6ccccc56)cc4)cc3)c3ccccc3nc2c1	active
NC(N)=N/N=C(/c1ccccc1)c1ccc(Cl)cc1	inactive

q: Hey, what did the test say about O=C(CC(O)c1ccncc1)c1ccccc1 (stereo not given) ?
a: inactive

q: Another compound to look at: COc1cc(Nc2ncc3c(C)nc(-c4cccc(Oc5ccccc5)c4)n3n2)cc(OC)c1OC
a: inactive

q: Another compound to look at: O=C1CSC(=S)N1Cc1cccnc1
a: inactive

q: Another compound to look at: COc1ccc(Cn2cnc3cc(C(=O)Nc4cccc5ccccc45)ccc32)c(OC)c1
a: active

q: Another compound to look at: O=C1c2cccc3cccc(c23)C(=O)N1CCCCN1CCN(CCCCOc2ccc(-c3nc4ccc(N5CCOCC5)cc4[nH]3)cc2)CC1
a: inactive

q: Another compound to look at: COc1cc(/C=C/C(=O)C(C(=O)/C=C/c2ccc(OC(=O)CCNc3nnc(C)s3)c(OC)c2)C(=O)CCNc2nnc(C)s2)ccc1OC(=O)CCNc1nnc(C)s1
a: inactive

###

- Test system: HL-60(TB) leukemia
- assay-method-text: NCI tumour cell line growth inhibition, 48 h; in the data active means GI50 below about 0.43 µM; inactive means the rest
Outcome field: choose from active, inactive

molecule	category-label
COc1cc2c3c(n(CCCNC(=O)OCC4c5ccccc5-c5ccccc54)c(=O)c2cc1OC)-c1cc2c(cc1C3=O)OCO2	inactive
CC1(C)N=C(N)N=C(N)N1c1ccc(OCC(=O)N2CCOCC2)c(Cl)c1	inactive

Now for a further molecule.
q: Hey, what did the test say about O=C(N1CCC(CN=c2cc3n(-c4ccc(Cl)cc4)c4ccccc4nc-3cc2Nc2ccc(Cl)cc2)CC1)N1CC1 ?
a: inactive
